// provenance: PubChem BioAssay AID1963831

system: 889142-216-R-J1-PDC complex spheroid viability; assay: Anticancer human tumor 889142-216-R-J1-PDC patient-derived bladder carcinoma cell line growth inhibition [POLQ]; settings: second compound 0.1 µM; first compound 10 µM; active compounds read low;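 note: spheroids exposed to compounds for seven days; 100% = DMSO vehicle control viability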
READOUT_KIND: viability, T/C (%)

COMPOUND	READOUT_KIND	MEASUREMENT_UNITS	READING
CC(C)n1c(=O)n(C)c2cnc3cc(F)c(-c4ccc(OCCCN5CCCCC5)nc4)cc3c21 + Nc1ccc(C#CCN(C(=O)Cc2ncc(C(F)(F)F)cc2C(F)(F)F)c2ccc(F)cc2)nn1	viability, T/C	%	76.1
CCCS(=O)(=O)Nc1ccc(F)c(C(=O)c2c[nH]c3ncc(-c4ccc(Cl)cc4)cc23)c1F + Nc1ccc(C#CCN(C(=O)Cc2ncc(C(F)(F)F)cc2C(F)(F)F)c2ccc(F)cc2)nn1	viability, T/C	%	41.7
CC1COCCN1c1cc(-c2ccnn2C)c2ccnc(-c3ccn[nH]3)c2n1 (stereo not given) + Cc1cccc(N(C)C(=O)C2C(O)CCN2c2nc(C)cc(C(F)(F)F)c2C#N)c1	viability, T/C	%	25.8
C=CC(=O)N1CCN(c2nc(=O)n(-c3c(C)ccnc3C(C)C)c3nc(-c4c(O)cccc4F)c(F)cc23)C(C)C1 (stereo not given) + Nc1ccc(C#CCN(C(=O)Cc2ncc(C(F)(F)F)cc2C(F)(F)F)c2ccc(F)cc2)nn1	viability, T/C	%	102
O=C(c1cc(Cc2n[nH]c(=O)c3ccccc23)ccc1F)N1CCN(C(=O)C2CC2)CC1 + Cc1cccc(N(C)C(=O)C2C(O)CCN2c2nc(C)cc(C(F)(F)F)c2C#N)c1	viability, T/C	%	63.6
